- test: qHTS Assay for Spectroscopic Profiling in A350 Spectral Region
- measurement.parameters: Compound autofluorescence, 340/450 nm, Alexa 350 dye-equivalents
Out of some 59,000 compounds screened, about 6,500 (11%) were called active. About 15% were inconclusive and are not listed. No stated cut-off is given here; in the data, active means max dye-equivalent concentration above about 10 nM; inconclusive means mostly about 1.1 nM to 9.6 nM; inactive means weaker than that. Only a selection was taken, and actives are over-represented in it overall.
Outcomes: 1 for active, 0 for inactive

| compound | group |
| --- | --- |
| COc1ccccc1-c1nc(NCc2cccs2)c2ccccc2n1 | 0 |
| CN(C(=O)CSc1nnnn1-c1ccccc1)C1CCCCC1 | 0 |
| CCOC(=O)N1CCN(C(=O)C2CCN(c3ncnc4c3sc3cccc(F)c34)CC2)CC1 | 1 |
| CCCC(CCC(=O)OC)(C(=O)OCC)c1csc(N)n1 (configuration not stated) | 0 |
| COc1ccc(Cc2nnnn2CC(=O)O)cc1 | 0 |
| COc1ccc(OCC(=O)OCC(=O)Nc2ccc(S(=O)(=O)N3CCCCC3)cc2)cc1 | 0 |
| COc1ccc(C2C(C(=O)N3CCN(c4ccc(OC)cc4)CC3)c3ccccc3C(=O)N2C)cc1 (configuration not stated) | 0 |
| COc1ccc(CNc2ncncc2-c2ccccc2C)c(OC)c1 | 0 |
| Cc1cccc(Cn2c(N3CCN(c4ccccc4)CC3)nc3c2c(=O)n(C)c(=O)n3C)c1 | 0 |
| C[N+]1(CCN=C=NC2CCCCC2)CCOCC1 | 0 |
| Cc1ccccc1OCCC(=O)Nc1c(C)n(C)n(-c2ccccc2)c1=O | 0 |
| CCOC(=O)N1CCN(CC(=O)Nc2cc(C)nn2-c2nc3ccccc3s2)CC1 | 0 |
| Oc1ccc2nc(Cc3ccccc3)[nH]c2c1 | 0 |
| Cc1cn(C2C=CC(CO)O2)c(=O)[nH]c1=O (configuration not stated) | 0 |
| C=C(C)COc1ccc(-c2n[nH]c(C)c2-c2ccccc2OC)c(O)c1 | 0 |
| COc1ccc(S(=O)(=O)N2CCCC2)c(C)c1C | 0 |
| Cc1cccc(-n2nc3c(c2NC(=O)c2ccc(Br)o2)CSC3)c1C | 0 |

====

- test: qHTS Assay for Spectroscopic Profiling in A350 Spectral Region
- measurement.parameters: Compound autofluorescence, 340/450 nm, Alexa 350 dye-equivalents
The whole screen tested about 59,000 compounds, of which about 6,500 (11%) were called active. Roughly 15% stayed inconclusive and do not appear here. Cut-off read from the data, not from the text of the source: active = max dye-equivalent concentration above about 10 nM; inconclusive = mostly about 1.1 nM to 9.6 nM; inactive = weaker than that. The sample holds actives, similar compounds and a random draw of the others, so the mix is not that of the screen.
Outcomes: T for active, F for inactive

| compound | group |
| --- | --- |
| CC1(C)C(=O)C2(CCCCC2)C(=O)OC1c1cccs1 (centres undefined) | F |
| COc1ccc(CNc2ncncc2-c2ccccc2OC)c(OC)c1 | F |
| CCOC(=O)c1[nH]c2ccc(OC)cc2c1NC(=O)N1CCOCC1 | T |
| COc1ccc2[nH]cc(CCNc3ncnc4ccc(-c5ccccc5CN(C)C)cc34)c2c1 | F |
| O=C1c2ccccc2C(=O)N1c1ccccc1S(=O)C(F)(F)F (centres undefined) | F |
| CC1CN(C2CCN(C(=O)COc3ccccc3)CC2)CC(C)O1 (centres undefined) | F |
| CCn1c(Cc2ccccc2)nnc1SCC(=O)Nc1ccccc1 | F |
| COCCn1nnnc1CN1CCC(NC(=O)Nc2cccc(OC)c2)CC1 | F |
| COc1ccccc1CNc1ncncc1-c1cccc(NS(C)(=O)=O)c1 | F |
| O=C(O)[C@@H]1[C@@H](C(=O)O)[C@]23C[C@@]2(C(=O)O)[C@]2(C(=O)O)CCC3=C3CCCC312 | F |
| N#Cc1cccc(NC(=O)CCC2CCCC2)c1 | F |
| Cc1ccc(S(=O)(=O)N2CCC(C(=O)N[C@@H](C)C(=O)NCc3ccccc3)CC2)cc1 | F |
| COC(=O)c1sc(=S)n(-c2ccccc2)c1N | F |
| COC(=O)c1[nH]c2ccccc2c1NC(=O)CN1CCCc2ccccc21 | F |

====

- test: qHTS Assay for Spectroscopic Profiling in A350 Spectral Region
- measurement.parameters: Compound autofluorescence, 340/450 nm, Alexa 350 dye-equivalents
Out of some 59,000 compounds screened, about 6,500 (11%) were called active. Inconclusive results (about 15%) are left out. Rule as the data show it: active = max dye-equivalent concentration above about 10 nM; inconclusive = mostly about 1.1 nM to 9.6 nM; inactive = weaker than that. The sample as a whole holds a higher share of actives than the screen did.
Outcomes: active, inactive

| compound | group |
| --- | --- |
| CCCN1CC=C2C(C#N)=C(N)C(C#N)(C#N)C(c3cc(OC)ccc3OC)C2C1 (configuration not stated) | active |
| Cc1ccc2nc(NCCCNC(=O)c3cnccn3)c(C#N)cc2c1 | active |
| O=c1[nH]c(-c2cccs2)nc2ccccc12 | inactive |
| CCCN(CCC)CCNC(=O)c1cc2c(C)nc3ccccc3c2o1 | active |
| CCC1=C(C(=O)OC)C(c2cc(OC)ccc2OC)C(C#N)=C(N)O1 (configuration not stated) | inactive |
| O=c1[nH]c(=O)c2nc3ccccc3nc2[nH]1 | active |
| CCOc1cccc(NC(=O)C2CCCN(S(=O)(=O)c3ccc(OC)cc3)C2)c1 (configuration not stated) | inactive |
| C=CCn1c(C2CC(=O)N(c3ccc(C)cc3)C2)nc2ccccc21 (configuration not stated) | inactive |
| O=C(CCCCn1c(=O)[nH]c2ccccc2c1=O)NCc1ccc2c(c1)OCO2 | inactive |
| CC(C)=C(NC(=O)c1ccco1)C(=O)NCCc1nc2ccccc2[nH]1 | inactive |
| CN1C(C)(C)CC(NC(=O)CCC(=O)NC2CC(C)(C)N(C)C(C)(C)C2)CC1(C)C | inactive |
| COC(=O)c1c(NC(=O)CSc2nc3c(c(=O)n(C)c(=O)n3C)n2C(C)C)sc(C)c1C | inactive |
| C=CCn1c(N)c(S(=O)(=O)c2cccs2)c2nc3ccccc3nc21 | active |
| C=CCn1c(N)c(C(=O)OCC(C)C)c2nc3ccccc3nc21 | active |
| CCC(=O)Nc1sc(C(=O)N2CCCCC2)c(C)c1C#N | inactive |
| OCCCN1c2ccccc2Nc2nnc(-c3ccccc3)cc21 | active |
| Cc1ccccc1N1C(=O)C2ON(c3ccccc3)C(c3ccncc3)C2C1=O (configuration not stated) | inactive |

====

- test: qHTS Assay for Spectroscopic Profiling in A350 Spectral Region
- measurement.parameters: Compound autofluorescence, 340/450 nm, Alexa 350 dye-equivalents
Out of some 59,000 compounds screened, about 6,500 (11%) were called active. Another 15% or so got no clear call; they are omitted. No stated cut-off is given here; in the data, active means max dye-equivalent concentration above about 10 nM; inconclusive means mostly about 1.1 nM to 9.6 nM; inactive means weaker than that. For the sample, actives were picked, then their nearest neighbours and some compounds at random.
Outcomes: active, inactive

| compound | group |
| --- | --- |
| CCOc1ccc(C(C)C)cc1S(=O)(=O)n1nc(C)cc1C | inactive |
| c1ccc(CCn2nnnc2CN2CCN(C3CCCC3)CC2)cc1 | inactive |
| CC(=O)Nc1ccc(S(=O)(=O)Nc2nc3n(n2)C(c2ccccc2)CC(=O)N3)cc1 (stereo not drawn) | inactive |
| N#Cc1c(N)n(CCOC(=O)c2ccc(Cl)cc2)c2nc3ccccc3nc12 | active |
| Cc1ccccc1N1CCN(S(=O)(=O)C[C@@]23CC[C@H](C[C@H]2NC(=O)[C@@H](N)CCS(C)(=O)=O)C3(C)C)CC1 | inactive |
| COc1ccc(C2C(C(=O)Nc3ccccc3OC)=C(C)Nc3nnnn32)c(OC)c1 (stereo not drawn) | inactive |
| CCC(C)n1[nH]c(=O)cc1N (stereo not drawn) | inactive |
| CC(Sc1nncs1)C(=O)NCc1ccc2c(c1)OCO2 (stereo not drawn) | inactive |
| Cc1c(C(=O)OCC(=O)N(CCC#N)c2ccccc2)oc2c1ccc1ccccc12 | active |
| O=C1c2ccccc2C(=O)N1CCc1nn[nH]n1 | inactive |
| COc1ccccc1N1CCN(C(=O)CN(Cc2ccc(Cl)cc2)S(C)(=O)=O)CC1 | inactive |
| CCOc1ccc2c(c1)cc(CN(C(=O)CC)C1CCCCC1)c1nnnn12 | inactive |
| COC(=O)c1nc(NC(=O)c2ccc(Cl)cc2)n[nH]1 | inactive |
| O=C(OCc1nnc(-c2ccccc2)o1)c1ccc2c(c1)C(=O)N(CCc1ccccc1)C2=O | inactive |
| O=C(NCc1cn2ccsc2n1)Nc1cccc(Cl)c1 | inactive |
| Cc1ccc(S(=O)(=O)NC(=O)NN2C[C@H]3CCC[C@@H]3C2)cc1 | inactive |
| O=C(CSc1nc2ccccc2o1)N1CCN(c2ccc(Cl)cc2)CC1 | inactive |
| COc1ccccc1OCCC(=O)OCC(=O)NC(=O)NC(C)(C)C | inactive |
| Oc1c(Br)cc(CN(Cc2cc(Br)c(O)c(Br)c2)C2CCCCC2)cc1Br | inactive |
| COc1cccc2cc(C(C)N(CCCN3CCOCC3)C(=O)Nc3ccc(Cl)cc3)oc12 (stereo not drawn) | inactive |
| CS(=O)(=O)c1ccc2nc(NC(=O)CN3CCCCCC3)sc2c1 | inactive |
| O=c1ccc2cc(S(=O)(=O)N3CCN(c4ccccc4)CC3)ccc2o1 | inactive |
| CCC(=O)N(Cc1cc2cc(OC)ccc2[nH]c1=O)c1ccccc1C | active |
| CC(=O)N1CCC2(CCCN(c3ncccn3)C2)CC1 | inactive |
| Cc1nonc1OCCn1nnnc1N | inactive |
| COCCCN1C(=O)c2ccc(C(=O)Nc3ccc(OC)cc3OC)cc2C1=O | inactive |
| COc1ccccc1CN1CC2(CCN(S(=O)(=O)c3ccccc3)CC2)C1 | inactive |
| O=C1CC(c2cccc(F)c2)C2=C(CCCC2=O)N1 (stereo not drawn) | inactive |
| COc1cc2cc(CN(CCN3CCCC3)C(=O)Nc3ccccc3Cl)c(=O)[nH]c2cc1OC | active |
| Cc1ccc(F)cc1NC(=O)c1cccc(N(C)C)c1 | inactive |
| CCOc1ccc2[nH]c(=O)c(CN(CCCO)C(C)=O)cc2c1 | active |
| Nc1nc(N)c2[nH]c(CNc3ccc(C(=O)O)cc3)nc2n1 | inactive |
| COCCCNC(=O)CCc1nc2cccnc2n1Cc1ccc(OC)cc1 | inactive |
| CCc1cc(=O)oc2cc(C)cc(OC(C)C(=O)O)c12 (stereo not drawn) | active |
| CC(C)NS(=O)(=O)c1ccc(CCC(=O)N2CCOCC2)cc1 | inactive |
| Cc1cc(O)ccc1-c1cnc2ccccc2n1 | inactive |
| COc1ccc2[nH]c(=O)c(CN(CC3CCCO3)C(=O)Nc3ccccc3)cc2c1 (stereo not drawn) | active |
| CCOc1cccc(-c2nnc3sc(COc4ccc(OC)cc4)nn23)c1 | inactive |
